# protocol description: Acute toxicity in the mouse (LD 50, Miller and Tainter)
# stated conditions: in vivo, oral
# Procedure: The acute toxicity of α-lipoic acid in the mouse (expressed in the LD 50 mg/kg; Method after Miller and Tainter: Proc. Soc. Exper. Biol. a. Med. 57 (1944) 261) is, for example, in oral application above 400 mg/kg body weight, that of dihydrolipoic acid above 200 mg/kg body weight mouse.

>  <compound>
O=C(O)CCCCC1CCSS1 (racemic)

>  <LD50>
> 400 mg/kg

$$$$
>  <compound>
O=C(O)CCCCC(S)CCS (centres unmarked) [dihydrolipoic acid, 6,8-dimercapto-octanoic acid]

>  <LD50>
> 200 mg/kg

$$$$
